Provide the recorded LogP for the entries that follow.
# ASSAY_REMARKS: Measurement of LogP values by HPLC on reversed phase columns (EEC directive 79/831 Annex V.A8)
# Format: physicochemical
Marks after values point to notes of the source that are not given here.

COMPOUND	LogP
Nc1nsc(C(=O)NCc2ccc(C(F)F)cc2)c1Cl [I-133]	1.91[a]

Hi team, please reply with LogP for each item in this list.
1. C[C@@H]1CCCC[C@H]1NC(=O)c1snc(N)c1Br (relative stereo) [I-839]
2. C#CCOC(=O)N(C(=O)OCC#C)c1nsc(C(=O)N[C@@H](C)C2CCCCC2)c1Cl [I-135]
3. Nc1cc(C(=O)NCc2ccc(Cl)cc2F)sn1 [I-179]
4. Cc1cc(F)ccc1CNC(=O)c1snc(NC(=O)C(F)F)c1Cl [I-809]
5. O=C(NCc1ccccc1F)c1snc(NC2CC2)c1Cl [I-057]

Completion:
["2.49[a]", "3.96[a]", "1.82[a]", "2.28[a]", "2.66[a]"]

Summary for this compound, CC1OC(C)(C)c2cccc(NC(=O)c3snc(N)c3Cl)c21 (stereo not shown) [I-879] : LogP is 2.28[a]

---

# ASSAY_REMARKS: Measurement of LogP values by HPLC on reversed phase columns (EEC directive 79/831 Annex V.A8)
# Assay type: physicochemical
Marks after values point to notes of the source that are not given here.
Provide the reported LogP of each item.

COMPOUND	LogP
COc1ccc(CNc2nsc(C(=O)NCCc3cccs3)c2Cl)cc1 [I-1269]	3.55[a]
Nc1cc(C(=O)N(Cc2cc(Cl)ccc2Br)C2CC2)sn1 [I-1001]	2.84[a]
Nc1nsc(C(=O)NCc2cncc(F)c2)c1Cl [I-037]	0.92[a]

Hi! Can you tell me LogP for each of these compounds?
1. CC1CC(C)(C)c2cccc(NC(=O)c3snc(N)c3Cl)c21 (stereo not shown) [I-885]
2. COC(=O)Nc1nsc(C(=O)NCc2ccccc2F)c1Cl [I-239]

Completion:
["3.62[a]", "1.98[a]"]

Each of the following entries comes with a recorded value; kindly state LogP for each.
1. Nc1nsc(C(=O)NCc2c(F)ccc(F)c2F)c1Cl [I-129]
2. Nc1nsc(C(=O)NCc2ccccc2Cl)c1Cl [I-009]
3. COc1ccc(CNc2nsc(C(=O)NC3(C4CCCCC4)CC3)c2Cl)cc1 [I-113]
4. Nc1nsc(C(=O)NC2CCCC3CCCCC32)c1Cl (stereo not shown) [I-622]
5. O=C(NCc1ccc(F)cc1F)c1cc(N(Cc2ccccc2)Cc2ccccc2)ns1 [I-322]
6. CCCCn1cc(CNC(=O)c2snc(NCc3ccc(OC)cc3)c2Cl)c(C)n1 [I-1260]
7. COc1ccc(CNc2nsc(C(=O)NC3CCCCc4ccccc43)c2Cl)cc1 (stereo not shown) [I-1334]
8. COc1ccc(CNc2nsc(C(=O)NCCc3ccccc3Cl)c2Cl)cc1 [I-877]

Completion:
1. 1.91[a]
2. 2.12[a]
3. 4.69[a]
4. 3.48[a]
5. 4.45[a]
6. 3.21[a]
7. 4.40[a]
8. 4.07[a]

# per-item lookup of LogP; items listed below
1. CCc1ccccc1CN(C(=O)c1snc(N)c1Cl)C1CC1 [I-153]
2. Nc1nsc(C(=O)NCC2CCC(C(F)(F)F)CC2)c1Br (stereo not shown) [I-840]
3. CCC(C)C(C)N(C(=O)c1snc(N)c1Cl)C1CC1 (stereo not shown) [I-901]

Completion:
1: 3.04[a]; 2: 2.68[a]; 3: 3.00[a]

Please go through the list and note LogP for each compound.
1. COc1ccc(CNc2nsc(C(=O)NCC3CCCCC3(C)C)c2Cl)cc1 (stereo not shown) [I-056]
2. CCC(=O)Nc1nsc(C(=O)NCC2CCCCC2)c1Cl [I-109]
3. COc1ccc(CNc2nsc(C(=O)Nc3cccc4c3C(C)CC4(C)C)c2Cl)cc1 (stereo not shown) [I-880]
4. O=C(NCc1ccccc1F)c1snc(Nc2ccc(F)cc2)c1Cl [I-059]
5. Nc1nsc(C(=O)NC2CCCC3CCCCC32)c1Cl (stereo not shown) [I-621]
6. Cc1ccc(CNC(=O)c2snc(N)c2Cl)o1 [I-814]
7. Nc1nsc(C(=O)Nc2ccccc2)c1Cl [I-852]

Completion:
1. 4.95[a]
2. 2.50[a]
3. 5.42[a]
4. 3.68[a]
5. 3.39[a]
6. 1.66[a]
7. 1.83[a]

For each entry beneath this line, provide reported LogP.
1. Nc1nsc(C(=O)NCC2CCCCC2)c1-c1ccc(F)cc1 [I-332]
2. COc1ccc(CNc2nsc(C(=O)N(C3CC3)C(C)c3ccc(Cl)cc3Cl)c2Cl)cc1 (stereo not shown) [I-931]
3. Nc1cc(C(=O)NCc2ccc(F)cc2)sn1 [I-029]
4. Nc1nsc(C(=O)NCC2CCCCC2C(F)(F)F)c1Cl (stereo not shown) [I-1554]
5. COc1ccc(CNc2nsc(C(=O)NCC3(C)CCCO3)c2Cl)cc1 (stereo not shown) [I-1236]
6. C[C@@H](NC(=O)c1snc(N)c1Cl)C1CCCCC1 [I-077]
7. Nc1nsc(C(=O)Nc2cccc(F)c2)c1Cl [I-865]
8. COc1ccc(CNc2nsc(C(=O)N(Cc3ccc(F)cc3F)C(=O)c3ccc(C(F)(F)F)cc3)c2Cl)cc1 [I-1556]

Completion:
["2.96[a]", "5.22[a]", "1.27[a]", "2.51[a]", "3.06[a]", "2.78[a]", "2.07[a]", "5.14[a]"]
